system: MOLT-4; assay: NCI tumour cell line growth inhibition, 48 h
Activity calls are given as the source filed them. No stated cut-off is given here; in the data, active = GI50 up to about 1.1 µM and inactive = higher.
Assignment: determine reported GI50 for the given compounds.

Task: Quick check: GI50 of CCC(CO)Nc1nc2c(c(=O)n(C)c(=O)n2C)n1CCO (stereo unspecified) ?
Output: > 100 µM (inactive)

Task: Quick check: GI50 of "Nc1nc(-c2ccccc2)c(CC(=O)O)s1" ?
Output: > 100 µM (inactive)

Task: Quick check: GI50 of S=c1sc2c(n1-c1ccccc1)N=CNC2S (stereo unspecified) ?
Output: 92.5 µM (inactive)

Task: Quick check: GI50 of CC#C[C@@]1(O)CCCCC1O (stereo partly specified) ?
Output: > 100 µM (inactive)

Task: Quick check: GI50 of CCCCCCCCCCCCCCCCNc1nc(=O)n(C2CC(O)C(CO)O2)cc1F (stereo unspecified) ?
Output: 4.72 µM (inactive)

Task: Quick check: GI50 of "COc1ccc(/C(Cl)=C(\C=O)c2cc(OC)c(OC)c(OC)c2)cc1OC" ?
Output: 22.4 µM (inactive)

###

system: SK-MEL-5; assay: NCI tumour cell line growth inhibition, 48 h
Calls of active or inactive are those of the source. No stated cut-off is given here; in the data, active = GI50 up to about 1.1 µM and inactive = higher.
Answer with one of the outcomes active, inactive

Task: // return assay outcome for "COc1ccc2nc(-c3ccccc3)c(=O)[nH]c2c1"
Output: inactive

Task: // return assay outcome for O=C(CCN1CCCC1)CC(c1ccccc1)c1c(O)c2ccccc2oc1=O (configuration not stated)
Output: inactive

Task: // return assay outcome for "COc1ccc(Cc2c(=O)[nH]nc3ccccc23)cc1"
Output: inactive

Task: // return assay outcome for "C=C1C(=O)O[C@@H]2/C=C(\C)CC/C=C(\C)CC[C@@]12O"
Output: inactive

Task: // return assay outcome for "C=C1c2nc3ccccc3n2C=C(c2ccc(C)cc2)N1c1ccc(C)cc1"
Output: inactive

Task: // return assay outcome for O=C(NCCCCCCNC(=O)n1cc(F)c(=O)[nH]c1=O)NCCCOCCOCCOCCOCCOCCOCCOCCOCCOCCOCCOCCOCCOCCOCCOCCOCCOCCOCCOCCOCCOCCCNC(=O)C(O)C(O)C(O)C(O)CO (configuration not stated)
Output: inactive

Task: // return assay outcome for "CCc1c(O)nc(Nc2nc3ccccc3[nH]2)[nH]c1=O"
Output: inactive

Task: // return assay outcome for OCC1c2ccccc2-n2nc(-c3ccccc3)c(O)c21 (configuration not stated)
Output: inactive

Task: // return assay outcome for Cc1ccc([N+](=O)[O-])cc1S(=O)(=O)Nc1ccc(C2=NN(C(=O)c3ccccc3)C(c3ccccc3)C2)cc1 (configuration not stated)
Output: inactive

Task: // return assay outcome for CN1N=C(c2ccncc2)OC1c1ccc(Cl)c(Cl)c1 (configuration not stated)
Output: inactive

Task: // return assay outcome for "Cc1cc(C)nc(NS(=O)(=O)c2ccc(NNc3c4ccccc4nc4c(C(=O)Nc5ccc(S(N)(=O)=O)cc5)cccc34)cc2)n1"
Output: inactive

Task: // return assay outcome for "N#Cc1c(NN)nc(NN)c(C#N)c1-c1ccccc1"
Output: inactive

Task: // return assay outcome for "CC(C)(Oc1ccc(Cl)cc1)C(=O)N(C(=O)N1CCCCC1)c1ccccc1"
Output: inactive

Task: // return assay outcome for "C/C(=N\Nc1nc2ccccc2s1)c1cc(C)ncn1"
Output: active

Task: // return assay outcome for "COC(=O)c1cc2c(cc1Cl)Sc1nnc(Nc3ccccc3)n1S2(=O)=O"
Output: inactive

Task: // return assay outcome for "CCCCn1c2ccccc2c2ccc3c(c21)C(=O)C=CC3=O"
Output: inactive

Task: // return assay outcome for "Cc1c(-c2ccc(O)c(O)c2)oc(=O)c2c(O)cccc12"
Output: inactive

Task: // return assay outcome for "CCNCCNC(=O)c1ccc(Br)cc1"
Output: inactive

Task: // return assay outcome for "COc1cc2c(cc1O)NC(=O)[C@@H]1C[C@@H](O)CN1C2=O"
Output: inactive

Task: // return assay outcome for "CN(C)c1cccc(-c2cc(=S)c3cc4c(cc3[nH]2)OCO4)c1"
Output: inactive

Task: // return assay outcome for "CCC(=O)n1c(=O)n(-c2ccc([N+](=O)[O-])cc2)c(=O)n1C(=O)CC"
Output: inactive

Task: // return assay outcome for "O=c1cc(-c2ccc(O)cc2)n(C2CC2)c2ccccc12"
Output: inactive

Task: // return assay outcome for [O-][S+]1c2ccccc2N=C(c2cccs2)CC1c1ccccc1O (configuration not stated)
Output: inactive

Task: // return assay outcome for "C1CNCCNCCNCCN1"
Output: inactive

Task: // return assay outcome for "C[N+](C)(C)C1(C(=O)[O-])CC1"
Output: inactive

Task: // return assay outcome for "CCOC(=O)CN1CCS/C1=N/C#N"
Output: inactive

Task: // return assay outcome for "O=C1C(Cl)=C(Oc2ccc([N+](=O)[O-])cc2)C(=O)c2c(O)ccc(O)c21"
Output: inactive

Task: // return assay outcome for "CN(C)/C=N/S(=O)(=O)c1nn2c(C=O)c(-c3ccc(Cl)cc3)nc2s1"
Output: inactive

Task: // return assay outcome for "c1ccc2c(CNCCCN3CCN(CCCNCc4cccc5ccccc45)CC3)cccc2c1"
Output: inactive

Task: // return assay outcome for COC(=O)C(C(=O)C(=O)Nc1ccc([N+](=O)[O-])cc1[N+](=O)[O-])c1nc2ccc(Cl)cc2nc1O (configuration not stated)
Output: inactive

Task: // return assay outcome for Nc1nc(SCc2ccccc2Cl)c2ncn(C3OC(CO)C(O)C3O)c2n1 (configuration not stated)
Output: inactive

Task: // return assay outcome for "Oc1c(Br)cc(/C=C/c2cccc(/C=C/c3cc(Br)c(O)c(Br)c3)n2)cc1Br"
Output: inactive

Task: // return assay outcome for "CCOC(=O)Nc1nc(-c2ccccc2)c(C)s1"
Output: inactive

Task: // return assay outcome for "Cc1ccc(N2C(=O)CS/C2=C(\C#N)c2nc3ccccc3[nH]2)cc1"
Output: inactive

Task: // return assay outcome for "Nc1nc(Cl)c(Cl)c(NCC2(O)CCC2)n1"
Output: inactive

Task: // return assay outcome for "Cc1cccc(Cn2c3c(c4cc(O)ccc42)C(=O)c2ccccc2C3=O)c1"
Output: inactive

Task: // return assay outcome for "CCc1nc(N)nc(N)c1-c1ccc(Cc2ccccc2)c([N+](=O)[O-])c1"
Output: active

Task: // return assay outcome for "CC(=O)[C@@]1(O)CC[C@H]2[C@@H]3C[C@H](C)C4=CC(=O)C=C[C@]4(C)[C@@]3(F)[C@@H](O)C[C@@]21C"
Output: inactive

Task: // return assay outcome for "CCOC(=O)C/C(=N\c1cc(C)on1)N(CC)CC.[O-][Cl+3]([O-])([O-])O"
Output: inactive

Task: // return assay outcome for "Cc1ccc(-n2cc(-c3ccc(Cl)cc3)c3c(NNC(=S)NCc4ccccc4)ncnc32)cc1"
Output: inactive

Task: // return assay outcome for "COc1ccc(/N=C/C=C/Nc2ccc(OC)cc2)cc1"
Output: inactive

Task: // return assay outcome for "CCc1cccc(C)c1NC(=O)CCc1nnc2s/c(=C\c3cccc4ccccc34)c(=O)n12"
Output: inactive
